Experiment: human hepatoma cell viability loss – ATP luminescence, cytotoxicity control for P. falciparum antimalarial project, primary screen (AID 2303);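 note: 0% = DMSO wells and 100% = digitonin-killed cells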
Details: HepG2 viability, 24-48 h, at 10 µM, active compounds read high
inhibition vs 20%: less than gives TRUE; not less than gives FALSE.

For orientation, consider the following solved cases.
>>> assigned_label("CCN(C(=O)CSc1cc(C)c2cc(C)cc(C)c2n1)C1CCS(=O)(=O)C1 (configuration not stated)")
"TRUE"
>>> assigned_label("CC(C)(C)c1cc2cc(Nc3ccnc4cc(-c5nccs5)ccc34)ccc2[nH]1")
"TRUE"
>>> assigned_label("COc1cccc(NC(=O)c2ccc(NCCCN3CCC(C)CC3)c([N+](=O)[O-])c2)c1")
"TRUE"

Ask: Say whether its inhibition is strictly beneath 20%. Entry: CNC(=O)C(C)N(c1ccc(Cl)cc1)c1nc(C(C)(C)C)cs1 (configuration not stated)
Reply: TRUE

Ask: Say whether its inhibition is strictly beneath 20%. Entry: "CC1(C)Cc2c([nH]c3ccccc23)C(CCCCCCCCC2=NC(C)(C)Cc3c2[nH]c2ccccc32)=N1"
Reply: FALSE

Ask: Say whether its inhibition is strictly beneath 20%. Entry: COc1ccc(-c2cc(C(=O)N[C@@H](CC3CCCCC3)C(=O)NC3CCCc4ccccc43)ccc2O)cc1 (some centres not stated)
Reply: TRUE

Ask: Say whether its inhibition is strictly beneath 20%. Entry: "Cc1cccc(NC(=O)NCc2ccccc2)n1"
Reply: TRUE

###

Target: L-lactate dehydrogenase (Plasmodium falciparum (isolate CDC / Honduras)) (UniProt Q27743)
Sequence (Q27743 whole entry, looked up): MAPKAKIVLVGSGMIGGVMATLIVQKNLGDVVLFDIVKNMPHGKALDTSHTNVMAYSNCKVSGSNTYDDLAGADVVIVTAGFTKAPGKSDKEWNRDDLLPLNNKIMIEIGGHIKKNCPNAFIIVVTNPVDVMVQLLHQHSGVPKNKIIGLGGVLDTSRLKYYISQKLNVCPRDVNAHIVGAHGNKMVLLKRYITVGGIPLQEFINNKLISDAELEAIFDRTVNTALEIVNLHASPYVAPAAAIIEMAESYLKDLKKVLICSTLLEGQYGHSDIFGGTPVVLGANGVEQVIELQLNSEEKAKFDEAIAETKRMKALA
Assay: PfLDH activity inhibition – cell lysate, 3D7 strain, counter-screen for P. falciparum growth inhibition project (AID 2304);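 note: 0% = vehicle and 100% = reference inhibitor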
Settings: P. falciparum 3D7 crude extract, LDH APAD/NBT absorbance; at 2 µM; active compounds read high
Recorded inhibition for the following compounds
All answers are understood in %, so give the number only.

>>> val("O=C(C=Cc1ccc(F)cc1)NC1CCC(CCN2CCc3ccc(-c4cnccn4)cc3CC2)CC1 (stereo not drawn)")
1

Kindly note the recorded inhibition for "O=C(C=Cc1cccs1)Nc1ccc(-c2nc3ccccc3[nH]2)cc1" , which is 4

###

Test: antimalarial activity against Dd2 strain (AID 2302);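 note: 0% = DMSO untreated growth and 100% = chloroquine plus artemisinin killed control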
Settings: P. falciparum Dd2 in RBCs, LDH growth readout, 72 h; at 2 µM
Active and inactive are the calls of the source.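 Rule for the calls: active = growth inhibition above 50% at the single 2 µM test dose, taken to imply half-maximal potency below 2 µM; inactive = the rest.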
Valid outcomes are listed here; reply with one: active, inactive

For orientation, consider the following solved cases.
>>> assigned_label("c1cncc(CNc2ncc(-c3ccsc3)c(-c3nccs3)n2)c1")
"active"
>>> assigned_label("CC(C)NCc1cccc(-c2cccc(-c3nc4ccccc4[nH]3)c2)c1")
"inactive"

Ask: Kindly provide the recorded test outcome for the following molecule: "CN(C)CCN1CCN(CCCN2c3ccccc3Sc3ccc(C(F)(F)F)cc32)CC1"
Reply: active

Ask: Kindly provide the recorded test outcome for the following molecule: "Cc1ccc(S(=O)(=O)n2cc(-c3ccnc(N)c3)c3cc(Br)cnc32)cc1"
Reply: inactive

Ask: Kindly provide the recorded test outcome for the following molecule: "COc1ccc(NC(=O)[C@H](C)Nc2cc(C)nc(NCC3CCCCC3)n2)cc1"
Reply: inactive

Ask: Kindly provide the recorded test outcome for the following molecule: "COc1cc(NC(=O)c2ccc3oc4ccccc4c3c2)ccc1OCCN1CCCCC1"
Reply: inactive

Ask: Kindly provide the recorded test outcome for the following molecule: "COc1ccc(C=C2SC(=N)N(c3ccccc3OC)C2=O)cc1"
Reply: active

Ask: Kindly provide the recorded test outcome for the following molecule: "CNC(=O)c1cc(S(=O)(=O)Nc2ccc(OC)cc2)cs1"
Reply: inactive

Ask: Kindly provide the recorded test outcome for the following molecule: "O=C(Cc1ccccn1)Nc1cccc(-c2cccc(-c3nc4ccc(C(F)(F)F)cc4[nH]3)c2)c1"
Reply: inactive

Ask: Kindly provide the recorded test outcome for the following molecule: "COc1ccc(CCN2CCC(NCc3cccc(N(C)C)c3)CC2)cc1"
Reply: inactive

Ask: Kindly provide the recorded test outcome for the following molecule: "COc1cccc(CCNCCCCCCNCCc2ccc(Cl)cc2)c1"
Reply: inactive

Ask: Kindly provide the recorded test outcome for the following molecule: "O=C(CCN(Cc1ccco1)c1nc(-c2ccc(F)cc2)nc2ccccc12)NC1CC1"
Reply: active

###

Assay: inhibition of 3D7 malaria parasite growth – strain 3D7 (AID 2306);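 note: 0% = DMSO wells and 100% = chloroquine plus artemisinin control wells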
Conditions: P. falciparum 3D7 erythrocytic growth, LDH absorbance, 72 h; at 2 µM; active compounds read high
The source made the active and inactive calls. The rule behind the calls is not given here.
Endpoint Name: growth inhibition

Below are worked cases with known answers.
>>> val("Cc1cc(-c2nc3ccc(C(=O)NCc4ccccc4)cc3n2C2CCN(C(=O)c3ccc(-c4ccccc4)cc3)CC2)ccn1")
"95% (active)"
>>> val("O=C(O[C@H]1CN[C@H](C#Cc2cc3c(Nc4ccc(OCc5cccc(F)c5)c(Cl)c4)ncnc3s2)C1)N1CCCC1")
"99% (active)"
>>> val("COc1ccc(CN(C)CCOc2ccc(NC(=O)c3cccc4c(=O)c5cc(SC)ccc5[nH]c34)cc2)cc1OC")
"96% (active)"

Kindly note the recorded growth inhibition for "CCCCCCOc1ccc(C(=O)NCCCC2CCN(CCCCCNC(=O)C=Cc3ccc(Cl)c(Cl)c3)CC2)cc1" , which is 94% (active)

###

Recorded growth inhibition for the following compounds
Test: inhibition of 3D7 malaria parasite growth – strain 3D7 (AID 2306);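 note: 0% = DMSO wells and 100% = chloroquine plus artemisinin control wells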
Details: P. falciparum 3D7 erythrocytic growth, LDH absorbance, 72 h; at 2 µM; active compounds read high
All answers are understood in %, so give the number only.

Below are worked cases with known answers.
>>> val("O=C(CCC1CCCC1)N(Cc1ccc(-c2ccc(CNCCc3ccccc3)cc2)cc1)C1CCCNC1 (centres undefined)")
90
>>> val("COc1ccc(CN(C)CCCc2ccc(NC(=O)c3cccc4c(=O)c5cccc(F)c5[nH]c34)cc2)cc1OC")
100

Kindly note the recorded growth inhibition for "Cc1cccc2[nH]c(-c3ccc(-c4cccc(CNCCNC(=O)c5ccnn5C)c4)cc3)nc12" , which is 100

Kindly note the recorded growth inhibition for "COc1ccc(Cn2c(Nc3cccc(C(F)(F)F)c3)nc3cc(C(=O)NC4CC4)cnc32)cc1Cl" , which is 94

Kindly note the recorded growth inhibition for "CNC(=O)NC1CCN(Cc2c(-c3cccs3)nc3ccccc3c2C(=O)N[C@@H](C)C2CCCCC2)CC1" , which is 99

Kindly note the recorded growth inhibition for "O=C(NCCCN1CCC(N2CCCCC2)CC1)c1ccc2nc(N3CCCCC3)sc2c1" , which is 89

Kindly note the recorded growth inhibition for "NC(N)=Nc1nc(-c2ccc(NC(=O)Nc3cccc(-c4csc(N=C(N)N)n4)c3)cc2)cs1" , which is 94

Kindly note the recorded growth inhibition for COc1ccccc1CN1CCC(CNC(=O)c2cc(-c3ccc(N(C)C)cc3)cs2)C1 (centres undefined) , which is 82

Kindly note the recorded growth inhibition for "COc1ccc(CNCc2ccc(-c3cccc(-c4nc5c(C)cccc5[nH]4)c3)cc2)cc1" , which is 102

Kindly note the recorded growth inhibition for "COc1ccc(NC(=O)CCNc2cc(C)nc(NCc3cccc(C)c3)n2)cc1" , which is 100

Kindly note the recorded growth inhibition for "O=C(Nc1cc(C(F)(F)F)ccc1Cl)c1ccc(Cn2cc(Br)cn2)cc1" , which is 91

Kindly note the recorded growth inhibition for "CC(=O)Nc1ccc(OCCCN(Cc2ccccc2OC(F)(F)F)c2ccc(C(F)(F)F)c(C#N)c2)c(Cl)c1" , which is 91

Kindly note the recorded growth inhibition for "Cc1ccccc1Nc1cc(Nc2ccccc2C)c2ccccc2n1" , which is 96

Kindly note the recorded growth inhibition for CC(C)(C)NCC(O)COc1ccc(Cl)cc1C1=NNC(=O)CC1 (centres undefined) , which is 96

Kindly note the recorded growth inhibition for "O=C(NC1CCCCCC1)[C@@H]1CCCN1C(=O)c1ccc(O)c(-c2ccc(Cl)c(Cl)c2)c1" , which is 99

Kindly note the recorded growth inhibition for "CCCN1CCC(NCc2cn(C)nc2-c2ccc(Oc3ccccc3)cc2)CC1" , which is 88

###

Test: antimalarial activity against Dd2 strain (AID 2302);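 note: 0% = DMSO untreated growth and 100% = chloroquine plus artemisinin killed control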
Conditions: P. falciparum Dd2 in RBCs, LDH growth readout, 72 h; at 2 µM; active compounds read high
Binary classification by growth inhibition, with 90% as an inclusive lower bound for t; all other cases are f.

For orientation, consider the following solved cases.
>>> assigned_label("CCN1CCC(N(Cc2ccc(-c3ccc(C(F)(F)F)cc3)cc2)C(=O)Cn2c(CCc3cccc(F)c3F)cc(=O)c3ccc(OCc4ccccc4)cc32)CC1")
"f"
>>> assigned_label("CN1C[C@@H](c2ccccc2)c2cc(O)c(CN3CCCCC3)cc2C[C@H]1Cc1ccccc1")
"t"
>>> assigned_label("CC[C@H](C)CNC(=O)c1cncc(-c2ccc(CNCC3CNCCCO3)cc2)c1 (stereo not given in full)")
"f"
>>> assigned_label("CC1(C)CCC(=Cc2ccc(Cl)cc2)CC1(O)Cn1ccnc1 (stereo not given)")
"f"

Alright, here's another compound for you.
Ask: Exam item: decide whether the reported growth inhibition for CCC1CCCCN1S(=O)(=O)c1ccc(NC(=O)c2cc(C)on2)cc1 (stereo not given) is at least 90%.
Reply: f

Data provenance: PubChem BioAssay
